pIC50: −log10 of the molar value.
// cross-study collection: pIC50 for Vascular endothelial growth factor receptor 2 (Homo sapiens)
measured.quantity: pIC50

> print(dat)
                                   compound  measured.quantity   assay.value
1  O=C(O)/C=C/c1cccc(-c2cnc3[nH]cc(C(=O)c4cccc(Cl)c4Cl)c3c2)c1              pIC50        ≥ 5.00
2  COc1cc2nccc(Oc3ccc4nc(NCC(F)F)sc4c3)c2cc1C(N)=O              pIC50  6.00 to 6.70
3  O=C(c1c(F)ccc(NS(=O)(=O)c2cccc(OC(F)F)c2)c1F)c1c[nH]c2ncc(Cl)cc12              pIC50        ≥ 5.00
4  Cn1cc(-c2cc(-c3ccc(N4C[C@@H]5[C@@H](CNC(=O)C(O)c6ccccc6)[C@@H]5C4)nc3)c3c(C#N)cnn3c2)cn1 (stereo partly shown)              pIC50        ≥ 8.00

* * *

// cross-study collection: IC50 for Vascular endothelial growth factor receptor 2 (Homo sapiens, UniProt P35968)
measured.quantity: IC50

> print(dat)
                                    compound  measured.quantity       assay.value
 1  Cn1cc(-c2ccnc3cc(-c4ccc5[nH]ccc5c4)oc23)cn1               IC50    300 to 3000 nM
 2  COc1ncc(-c2cnc3[nH]cc(C(=O)c4c(F)ccc(NS(=O)(=O)c5ccccc5F)c4F)c3c2)cn1               IC50        ≤ 10000 nM
 3  Cc1nc(-c2ccc3c(Oc4ccc(NC(=O)NC5CC5)c(Cl)c4F)ccnc3c2)cn1C               IC50           < 50 nM
 4  Cn1cc(-c2cc(-c3ccc(N4CC5CCC(C4)N5Cc4ccc(S(C)(=O)=O)cc4)nc3)c3c(C#N)cnn3c2)cn1               IC50           8.94 nM
 5  CCOc1ccn(-c2ccc(Cl)cc2)c(=O)c1C(=O)Nc1ccc(Oc2ccnc3cc(OC)c4c(c23)OCCO4)c(F)c1               IC50      50 to 500 nM
 6  CC(C)C(O)C(=O)N[C@H]1[C@@H]2CN(c3ccc(-c4cc(-c5cnn(C)c5)cn5ncc(C#N)c45)cc3)C[C@@H]21 (stereo partly shown)               IC50       10 to 50 nM
 7  COc1cc(C2=C(c3cn(CCOC(=O)C(N)CC(C)C)c4ccccc34)C(=O)NC2=O)cc(OC)c1OC (stereo not shown)               IC50            251 nM
 8  N#Cc1cc(NC(=O)Nc2ccc(Cl)c(C(F)(F)F)c2)ccc1Oc1cc(NC(=O)C2CC2)ncn1               IC50             25 nM
 9  COc1cc2nccc(Oc3cc(Cl)c4c(C(=O)N5CCCC5)coc4c3)c2cc1C(N)=O               IC50    200 to 1000 nM
10  COc1cc2nccc(Oc3ccc(N/C(=C/[N+](=O)[O-])NC4CC4)c(Cl)c3)c2cc1C(N)=O               IC50    200 to 1000 nM
11  Cc1cccc(NC(=O)Nc2ccc(-c3nn(CCCN(C)CCCC(=O)NO)c4ncnc(N)c34)cc2)c1               IC50            572 nM
12  Cn1cc(-c2cc(-c3ccc(N4C[C@@H]5[C@@H](CNC(=O)c6cc(F)ccc6Cl)[C@@H]5C4)nc3)c3c(C#N)cnn3c2)cn1               IC50           ≤ 10 nM
13  COc1cc2nccc(Oc3ccc(Nc4c(NCc5ccc(Cl)cc5)c(=O)c4=O)c(Cl)c3)c2cc1C(N)=O               IC50    200 to 1000 nM
14  Cn1ccc(-c2cc(-c3ccc(N4C[C@@H]5C[C@@](C)(NC(=O)c6ncccc6Cl)C[C@@H]5C4)nc3)c3c(C#N)cnn3c2)n1               IC50       10 to 50 nM
15  COc1cc2nccc(Oc3ccc4nc(NC5CC5)sc4c3)c2cc1C(N)=O               IC50    200 to 1000 nM
16  Cn1cnc(-c2ccc3c(Oc4ccc(NC(=O)N5CCCC5)c(Cl)c4F)ccnc3c2)c1               IC50           < 50 nM
17  COCCOc1cc2nccc(Oc3ccc(NC(=O)c4c(C)n(C)c(C)c(C5=CCCC5)c4=O)cc3F)c2nc1OC               IC50          ≤ 100 nM
18  CCOc1cc(OCC)cc(C(=O)Nc2cccc(Oc3ccnc(-c4nnco4)c3)c2)c1               IC50        > 10000 nM
19                c1csc(-c2cnc3[nH]ccc3c2)c1               IC50        ≤ 10000 nM
20      NC(=O)c1c(-c2ccncc2)nn(-c2ccccc2)c1N               IC50          48000 nM
21  Cc1cnc2[nH]cc(C(=O)c3c(F)ccc(NS(=O)(=O)c4cc(F)ccc4F)c3F)c2c1               IC50        ≤ 10000 nM
22  CCC(C)S(=O)(=O)Nc1ccc(F)c(C(=O)c2c[nH]c3nccc(Cl)c23)c1F (stereo not shown)               IC50        ≤ 10000 nM
23  COCCOc1ccc(F)c(C(=O)c2c[nH]c3ncc(Cl)cc23)c1Cl               IC50        ≤ 10000 nM
24  C=CC(=O)Nc1cc2c(Nc3ccc(Cl)nc3)ncnc2cc1OCCNC(C)=O               IC50            823 nM
25  COCCOc1cc2nccc(Oc3ccc(NC(=O)NC4CC4)c(Cl)c3)c2cc1C#N               IC50            9.5 nM
26  O=C(c1c(F)ccc(NS(=O)(=O)c2ncn[nH]2)c1F)c1c[nH]c2nccc(Cl)c12               IC50        ≤ 10000 nM
27  COc1cc(Cc2c[nH]c3ncccc23)c(Cl)cc1OCc1ccc(Cl)cc1F               IC50        ≤ 10000 nM
28  Cc1ccc(Oc2ccnc(NC(=O)C3CC3)c2)cc1NC(=O)Nc1ccc(F)c(C(F)(F)F)c1               IC50            6.9 nM
29  CN(C(=O)Nc1ccc(Cl)c(C(F)(F)F)c1)c1ccc(Oc2ccnc(-c3nc(C(F)(F)F)c[nH]3)c2)cc1               IC50        ≤ 10000 nM
30  N#Cc1cnc2[nH]cc(C(=O)c3c(F)ccc(NS(=O)(=O)c4ccccc4F)c3F)c2c1               IC50        ≤ 10000 nM
31  COc1cc(-c2cc3nccc(-c4ccc5c(c4)NC(=O)C5)c3o2)cc(OC)c1OC               IC50  3000 to 50000 nM

* * *

pIC50: −log10 of the molar value.
// cross-study collection: pIC50 for Vascular endothelial growth factor receptor 2 (Homo sapiens, UniProt P35968)
measured.quantity: pIC50

> print(dat)
                            chemical.string  comparison.operator  assay.value
1  Cc1ccc(NC(=O)c2cccc(C(F)(F)F)c2)cc1C#Cc1nn(C2CCN(C)CC2)c2ncnc(N)c12                    =         7.92
2  N#Cc1cnc2[nH]cc(C(=O)c3cccc(NS(=O)(=O)c4cc(F)ccc4F)c3F)c2c1                    ≥         5.00
3  Cn1cc(-c2cc(Oc3cccc(NC(=O)c4cccc5cc[nH]c45)c3)ccn2)cn1                    <         5.00
4  O=C(Nc1ccc(Oc2cc(NC(=O)C3CC3)ncn2)cc1)Nc1ccc(F)c(C(F)(F)F)c1                    =         8.05

* * *

// cross-study collection: IC50 for Vascular endothelial growth factor receptor 2 (Homo sapiens)
measured.quantity: IC50

> print(dat)
                            chemical.string     assay.value
1  O=C(c1cccc(NS(=O)(=O)c2ccc(Cl)cc2)c1)c1c[nH]c2ncc(Cl)cc12      ≤ 10000 nM
2  Cc1cc(Oc2ccnc(NC(=O)C3CC3)c2)ccc1NC(=O)Nc1cc(F)cc(C(C)(F)F)c1          5.7 nM
3  COc1cc2nccc(Oc3ccc(NC(=S)NC4CC4)c(Cl)c3)c2cc1C(=O)N1CCCCC1  200 to 1000 nM
4  O=C(Nc1ccc(Oc2ccnc(NC(=O)C3CC3)c2)c(F)c1)Nc1ccc(F)c(OC(F)(F)F)c1          9.5 nM
5  CS(=O)(=O)Nc1cccc(-c2cnc3[nH]cc(C(=O)c4cc(NS(=O)(=O)c5cccnc5)ccc4F)c3c2)c1      ≤ 10000 nM
6            C=Cc1ccc(-c2ccnc3[nH]ccc23)cc1      ≤ 10000 nM
7     O=C(Nc1ccc(F)cc1)Nc1ncnc2nn3ccccc3c12  100 to 1000 nM
8        Clc1cc(Cl)c(N/N=C/c2ccncc2)c(Cl)c1          210 nM
